So I've got a bunch of molecules here, and I need their pKa values.
Test: apparent pKa of ionizable lipid in lipid nanoparticle, TNS assay
Format: physicochemical
Settings: measured, lipid formulated in a lipid nanoparticle, TNS assay; read-out: pKa
One number for each entry.

Some molecules with known pKa results, for comparison:
SMILES_CODE	pKa
CCCCCCCCC(=O)OCC(COC(=O)CCCCCCCC)CC(=O)OCCN(CCOC(=O)CC(COC(=O)CCCCCCCC)COC(=O)CCCCCCCC)C(=O)OCCCN(C)C	7.35
CCCCCCCCCC(=O)OCC(COC(=O)CCCCCCCCC)CC(=O)OCCN(CCOC(=O)CC(COC(=O)CCCCCCCCC)COC(=O)CCCCCCCCC)C(=O)NCCCN(C)C	7.92
CCCCCCCCC(=O)OCC(COC(=O)CCCCCCCC)CC(=O)OCCN(CCOC(=O)CC(COC(=O)CCCCCCCC)COC(=O)CCCCCCCC)C(=O)NCCN(C)C	7.51
CCCCCCCCC(=O)OCC(COC(=O)CCCCCCCC)CC(=O)OCCN(CCOC(=O)CC(COC(=O)CCCCCCCC)COC(=O)CCCCCCCC)C(=O)N(C)CCCN(C)C	8.37

Return reported pKa; argument: "CCCCCCCCC(=O)OCC(COC(=O)CCCCCCCC)CC(=O)OCCN(CCOC(=O)CC(COC(=O)CCCCCCCC)COC(=O)CCCCCCCC)C(=O)N(C)CCN(C)C"
7.46

* * *

Assay: physical-chemical properties of LNP encapsulating mCherry mRNA
Format: physicochemical
Details: LNP 50:10:38.5:1.5, mCherry mRNA; DLS
Please provide measured PDI (polydispersity index) for the entries that follow.

// known answers, use as guide
SMILES_CODE	PDI (polydispersity index)
CCCCCCCCC(=O)OCC(COC(=O)CCCCCCCC)CC(=O)OCCN(CCOC(=O)CC(COC(=O)CCCCCCCC)COC(=O)CCCCCCCC)C(=O)N(C)CCCN(C)C	0.07
CCCCCCCCC(=O)OCC(COC(=O)CCCCCCCC)CC(=O)OCCN(CCOC(=O)CC(COC(=O)CCCCCCCC)COC(=O)CCCCCCCC)C(=O)N(C)CCN(C)C	0.03
CCCCCCCCC(=O)OCC(COC(=O)CCCCCCCC)CC(=O)OCCN(CCOC(=O)CC(COC(=O)CCCCCCCC)COC(=O)CCCCCCCC)C(=O)OCCCN(C)C	0.04

Record request: PDI (polydispersity index) value, item "CCCCCCCCCC(=O)OCC(COC(=O)CCCCCCCCC)CC(=O)OCCN(CCOC(=O)CC(COC(=O)CCCCCCCCC)COC(=O)CCCCCCCCC)C(=O)NCCCN(C)C"
0.13

* * *

Assay: physical-chemical properties of CD5-targeted tLNP encapsulating mCherry mRNA
Type: physicochemical
Conditions: anti-CD5 tLNP: ionizable lipid/DSPC/cholesterol/DMG-PEG 2000/DSPE-PEG2000-Maleimide 50:10:38.5:1.4:0.1; DLS
Method: CleanCap® mCherry 5-methoxyuridine (5moU) mRNA (L-7203) was purchased from TriLink. mRNA was encapsulated in LNP using a self-assembly process in which an aqueous solution of mRNA at pH=3.5 is rapidly mixed with a solution of lipids dissolved in ethanol, then followed by stepwise phosphate and Tris buffer dilution and TFF purification. […] mRNA content was determined using a Quant-iT™ RiboGreen RNA assay kit (Invitrogen™). […]
METRIC_NAME: Hydrodynamic diameter (nm)
One number for each entry, in nm.

Some solved cases for reference:
MOLECULE	UNIT_STRING	EXPERIMENTAL_VALUE
CCCCCCCCC(=O)OCC(COC(=O)CCCCCCCC)CC(=O)OCCN(CCOC(=O)CC(COC(=O)CCCCCCCC)COC(=O)CCCCCCCC)C(=O)N(C)CCCN(C)C [Compound A-15]	nm	136
CCCCCCCCC(=O)OCC(COC(=O)CCCCCCCC)CC(=O)OCCN(CCOC(=O)CC(COC(=O)CCCCCCCC)COC(=O)CCCCCCCC)C(=O)OCCCN(C)C [Compound A-12]	nm	98
CCCCCCCCC(=O)OCC(COC(=O)CCCCCCCC)CC(=O)OCCN(CCOC(=O)CC(COC(=O)CCCCCCCC)COC(=O)CCCCCCCC)C(=O)NCCN(C)C [Compound A-13]	nm	100
CCCCCCCCCC(=O)OCC(COC(=O)CCCCCCCCC)CC(=O)OCCN(CCOC(=O)CC(COC(=O)CCCCCCCCC)COC(=O)CCCCCCCCC)C(=O)NCCCN(C)C [Compound A-2]	nm	105
CCCCCCCCC(=O)OCC(COC(=O)CCCCCCCC)CC(=O)OCCN(CCOC(=O)CC(COC(=O)CCCCCCCC)COC(=O)CCCCCCCC)C(=O)OCCN(C)C [Compound A-11]	nm	93

Here is the next item to consider.
Name the recorded Hydrodynamic diameter for CCCCCCCCC(=O)OCC(COC(=O)CCCCCCCC)CC(=O)OCCN(CCOC(=O)CC(COC(=O)CCCCCCCC)COC(=O)CCCCCCCC)C(=O)N(C)CCN(C)C [Compound A-14] .
100

* * *

Test: ex vivo stability in mouse plasma
Type: in vitro ADME
Details: CD-1; mouse plasma, 37° C.
METRIC_NAME: half-life at 1 μM

# get_value(readout='half-life at 1 μM', item= CCCCCCCCC(=O)OCC(COC(=O)CCCCCCCC)CC(=O)OCCN(CCOC(=O)CC(COC(=O)CCCCCCCC)COC(=O)CCCCCCCC)C(=O)OCCN(C)C [Compound A-11] )
< 10 h

* * *

Test: physical-chemical properties of CD5-targeted tLNP encapsulating mCherry mRNA
Assay type: physicochemical
Conditions: anti-CD5 tLNP; RiboGreen assay
Would you mind telling me the reported Encapsulation Efficiency of each entry?
Give bare numbers, in %.

Known Encapsulation Efficiency results, listed for orientation:
SMILES_CODE	METRIC_NAME	EXPERIMENTAL_VALUE
CCCCCCCCC(=O)OCC(COC(=O)CCCCCCCC)CC(=O)OCCN(CCOC(=O)CC(COC(=O)CCCCCCCC)COC(=O)CCCCCCCC)C(=O)OCCCN(C)C	Encapsulation Efficiency	92
CCCCCCCCC(=O)OCC(COC(=O)CCCCCCCC)CC(=O)OCCN(CCOC(=O)CC(COC(=O)CCCCCCCC)COC(=O)CCCCCCCC)C(=O)NCCN(C)C	Encapsulation Efficiency	99

// input: 3 compounds below; output: Encapsulation Efficiency for each
1. CCCCCCCCC(=O)OCC(COC(=O)CCCCCCCC)CC(=O)OCCN(CCOC(=O)CC(COC(=O)CCCCCCCC)COC(=O)CCCCCCCC)C(=O)N(C)CCN(C)C
2. CCCCCCCCC(=O)OCC(COC(=O)CCCCCCCC)CC(=O)OCCN(CCOC(=O)CC(COC(=O)CCCCCCCC)COC(=O)CCCCCCCC)C(=O)N(C)CCCN(C)C
3. CCCCCCCCCC(=O)OCC(COC(=O)CCCCCCCCC)CC(=O)OCCN(CCOC(=O)CC(COC(=O)CCCCCCCCC)COC(=O)CCCCCCCCC)C(=O)NCCCN(C)C

1. 95
2. 98
3. 99
